# System: LK-2
# RUN_DESCRIPTION: relative viability (nuclei count vs DMSO), 5 days (fraction); higher = more cells survive
# CONDITION_INFO: first compound 0.1581 µM
Each record here notes measured relative viability.
The answer should be a number; do not append a unit.

Sample answers from the record:
MOLECULE	relative viability
Nc1ccn([C@@H]2O[C@H](CO)[C@@H](O)[C@@H]2O)c(=O)n1 [Cytarabine] + Cc1nc(NC(=O)N2CCC[C@H]2C(N)=O)sc1-c1ccnc(C(C)(C)C(F)(F)F)c1 [Alpelisib] (partner 2 µM)	0.276
Nc1ccn([C@@H]2O[C@H](CO)[C@@H](O)[C@@H]2O)c(=O)n1 [Cytarabine] + O=C(CCCCCCC(=O)Nc1ccccc1)NO [Vorinostat] (partner 1 µM)	0.143
Nc1ccn([C@@H]2O[C@H](CO)[C@@H](O)[C@@H]2O)c(=O)n1 [Cytarabine] + O=C(c1cc(Cc2n[nH]c(=O)c3ccccc23)ccc1F)N1CCN(C(=O)C2CC2)CC1 [Olaparib] (partner 8 µM)	0.164

Exam item: Query (molecule): COc1cc2nccc(Oc3ccc(NC(=O)Nc4cc(C)on4)c(Cl)c3)c2cc1OC [Tivozanib] + CC1(C)CCC(c2ccc(Cl)cc2)=C(CN2CCN(c3ccc(C(=O)NS(=O)(=O)c4ccc(N[C@H](CCN5CCOCC5)CSc5ccccc5)c(S(=O)(=O)C(F)(F)F)c4)cc3)CC2)C1 [Navitoclax] (partner 0.5 µM) ; field requested: relative viability
Marked response: 0.802

---

Each record here notes measured relative viability.
# Test system: NCI-H838
# RUN_DESCRIPTION: relative viability (nuclei count vs DMSO), 5 days (fraction); higher = more cells survive
# CONDITION_INFO: first compound 0.8 µM
The answer should be a number; do not append a unit.

Sample answers from the record:
COMPOUND	DATA_VALUE
O=c1[nH]c2ccccc2n1C1CCN(CCCC(c2ccc(F)cc2)c2ccc(F)cc2)CC1 [Pimozide] + CC(C)C[C@H](NC(=O)[C@H](Cc1ccccc1)NC(=O)c1cnccn1)B(O)O [Bortezomib] (partner 0.002 µM)	0.786
Cc1cnc(-c2cnc(NCCNc3ccc(C#N)cn3)nc2-c2ccc(Cl)cc2Cl)[nH]1 + CC1(C)CCC(c2ccc(Cl)cc2)=C(CN2CCN(c3ccc(C(=O)NS(=O)(=O)c4ccc(N[C@H](CCN5CCOCC5)CSc5ccccc5)c(S(=O)(=O)C(F)(F)F)c4)cc3)CC2)C1 [Navitoclax] (partner 0.5 µM)	1.44
O=c1[nH]c2ccccc2n1C1CCN(CCCC(c2ccc(F)cc2)c2ccc(F)cc2)CC1 [Pimozide] + Nc1nc2[nH]cc(CCc3ccc(C(=O)N[C@@H](CCC(=O)O)C(=O)O)cc3)c2c(=O)[nH]1 [Pemetrexed] (partner 0.2 µM)	0.238
Cc1cnc(-c2cnc(NCCNc3ccc(C#N)cn3)nc2-c2ccc(Cl)cc2Cl)[nH]1 + CC(C)C[C@H](NC(=O)[C@H](Cc1ccccc1)NC(=O)c1cnccn1)B(O)O [Bortezomib] (partner 0.002 µM)	0.889
Cc1cnc(-c2cnc(NCCNc3ccc(C#N)cn3)nc2-c2ccc(Cl)cc2Cl)[nH]1 + Nc1ncn([C@H]2C[C@H](O)[C@@H](CO)O2)c(=O)n1 [Decitabine] (partner 2 µM)	0.47

Attention now shifts to the item below.
Exam item: Query (compound): O=c1[nH]c2ccccc2n1C1CCN(CCCC(c2ccc(F)cc2)c2ccc(F)cc2)CC1 [Pimozide] + Cc1nc(Nc2ncc(C(=O)Nc3c(C)cccc3Cl)s2)cc(N2CCN(CCO)CC2)n1 [Dasatinib] (partner 0.075 µM) ; field requested: relative viability
Marked response: 0.225
